Species: Rattus norvegicus
Experiment: Reduction in sterol level in CFE rat […] in serum at 0.1% of diet treated through diet for 6 days relative to control
Type: functional
Design: scale not given: the % may be the effect or the level left
outcomeMeasure: Activity (%)

compound=CCCCS(=O)(=O)CCCCCCCCCCCOc1ccc(C(=O)O)cc1 numericvalue=94
compound=CCCCCCCCCCCCC/C=C\COc1ccc(C(=O)OC)cc1 numericvalue=82
compound="CCCCCCCCCCCCCCC(C)Oc1ccc(C(=O)O)cc1 (configuration not stated)" numericvalue=84
compound=CCCCSCCCCCCCCCCCOc1ccc(C(=O)OC)cc1 numericvalue=96
compound="CC(C)CCCC(C)CCCC(C)CCCC(C)CCOc1ccc(C(=O)O)cc1 (configuration not stated)" numericvalue=71
compound=COC(=O)c1ccc(OCCCCCCCCCCCCl)cc1 numericvalue=102
compound=O=C(O)CCCCCCCCCCOc1ccc(C(=O)O)cc1 numericvalue=94
compound=C=CCCCCCCCC/C=C/CCCOc1ccc(C(=O)O)cc1 numericvalue=74
compound=CCCCCCCCCCCCCCCCOc1ccc(C(=O)OC2CCN(C)CC2)cc1 numericvalue=96
compound=CCCCNCCCCCCCCCCCOc1ccc(C(=O)OC)cc1 numericvalue=96
compound=CCCCCCCCCCCCCCCCOc1c(Br)cc(C(=O)OC)cc1[N+](=O)[O-] numericvalue=97
compound=CCCCNCCCCCCCCCCCOc1ccc(C(=O)OC)cc1.Cl numericvalue=89
